Molecular target: CD3ε expressed on Jurkat cells (Homo sapiens, UniProt P07766)
Construct: against CD3ε expressed on Jurkat cells; host or cells: Jurkat T cells (E6-1)
Sequence (P07766 23-207): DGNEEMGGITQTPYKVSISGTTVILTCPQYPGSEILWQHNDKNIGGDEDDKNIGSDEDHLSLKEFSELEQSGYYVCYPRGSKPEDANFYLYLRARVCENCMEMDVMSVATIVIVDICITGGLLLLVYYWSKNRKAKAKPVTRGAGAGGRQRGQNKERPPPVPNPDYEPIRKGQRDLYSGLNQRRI
Sequence (P09693 23-182 partner): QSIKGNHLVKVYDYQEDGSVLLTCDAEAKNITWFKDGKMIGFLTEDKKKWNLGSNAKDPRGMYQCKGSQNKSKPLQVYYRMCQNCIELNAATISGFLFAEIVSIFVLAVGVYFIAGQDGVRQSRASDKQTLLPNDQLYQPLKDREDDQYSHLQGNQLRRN
Sequence (P04234 22-171 partner): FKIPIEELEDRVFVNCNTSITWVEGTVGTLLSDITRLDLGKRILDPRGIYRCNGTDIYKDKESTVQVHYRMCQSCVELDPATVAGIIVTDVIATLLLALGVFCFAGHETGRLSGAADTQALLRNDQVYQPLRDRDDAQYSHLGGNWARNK
Sequence (P20963 22-164 partner): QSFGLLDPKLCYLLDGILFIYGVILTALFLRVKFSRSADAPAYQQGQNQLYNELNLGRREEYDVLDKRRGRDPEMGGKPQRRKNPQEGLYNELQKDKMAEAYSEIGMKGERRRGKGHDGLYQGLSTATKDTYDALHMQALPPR
Sequence (P01848 whole entry partner): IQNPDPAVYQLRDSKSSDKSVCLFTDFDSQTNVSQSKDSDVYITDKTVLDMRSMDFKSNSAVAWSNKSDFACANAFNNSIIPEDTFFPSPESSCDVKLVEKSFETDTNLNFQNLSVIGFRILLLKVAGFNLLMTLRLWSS
Sequence (P01850 whole entry partner): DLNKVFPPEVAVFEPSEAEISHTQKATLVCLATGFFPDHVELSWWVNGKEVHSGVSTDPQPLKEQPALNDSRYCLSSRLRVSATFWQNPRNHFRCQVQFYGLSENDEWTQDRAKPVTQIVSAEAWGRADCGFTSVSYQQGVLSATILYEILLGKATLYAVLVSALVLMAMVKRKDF
Assay: Binding assay of peptide tetramers on Jurkat cells by flow cytometry
Settings: peptide tetramer on Alexa Fluor 488 streptavidin; CD3ε-expressing Jurkat cells; read-out: affinity (Kd)
READOUT_TYPE: Kd

SEQUENCE_RECORD: FWSSPQMGGGS [SEQ ID NO: 30]-PEG6-K-biotin [anti-CD3ε peptide 11 tetramer]
RESULT: ~100 µM

Proceeding to the next sequence to report its Kd.
INPUT: Provide CD3ε expressed on Jurkat cells (Homo sapiens, UniProt P07766) Kd reading for WSLGYTGGGGS [SEQ ID NO: 31]-PEG6-K-biotin [anti-CD3ε peptide 13 tetramer] .
OUTPUT: ~100 µM
